# subject.of.test: soluble histidine-tagged form of human TLR4/MD2 complex (human, UniProt Q9Y6Y9 19-160)
# Sequence (Q9Y6Y9 19-160, one chain of several): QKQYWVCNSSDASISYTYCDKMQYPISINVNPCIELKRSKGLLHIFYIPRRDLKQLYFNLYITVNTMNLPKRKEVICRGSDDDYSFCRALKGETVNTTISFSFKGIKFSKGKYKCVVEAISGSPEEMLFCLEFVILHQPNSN
# assay: competitive ELISA; 15C1 reference EC50 divided by variant EC50
quantity.kind: Relative binding potency increase (fold)
Respond with the bare value in fold.

## Input Relative binding potency increase lookup needed for 1E11.C2E4 antibody (IgG1) (antibody, V domains shown) VH: QVQLQESGPGLVKPSDTLSLTCAVSGYPIRFGYSWHWIRQPPGKGLEWMGYIHYSGYTDFNPSLKTRITISRDTSKNQFSLKLSSVTAVDTAVYYCARKDSGNYFPYWGQGTLVTVSS VL: EIVLTQSPDFQSVTPKEKVTITCRASQSISDHLHWYQQKPDQSPKLLIKYASHAISGVPSRFSGSGSGTDFTLTINSLEAEDAATYYCQQGYDYPLTFGGGTKVEIK , thanks.
## Output 40
